test: in vivo; details: CD2F1, mouse, in vivo
Quick reference: concentration at 120 min of the listed items.
// return numeric value only (unit: ng/mL, not printed)

COc1cc(/C=C/C(O)=C/C(=O)/C=C/c2ccc(O)cc2)ccc1O [DMO, desmethoxycurcumin] :: 39.5
COc1cc(/C=C/C(=O)CC(=O)/C=C/c2ccc(O)c(OC)c2)ccc1O [curcumin] :: 231

Using the record for O=C(/C=C/c1ccc(O)cc1)CC(=O)/C=C/c1ccc(O)cc1 [BDMO, bisdesmethoxycurcumin] , report its concentration at 120 min.
15.4

====

This listing pairs molecules with measured concentration at 10 min.
assay: in vivo; conditions: CD2F1, mouse, in vivo
Give the quantity in ng/mL, number only.

COc1cc(/C=C/C(O)=C/C(=O)/C=C/c2ccc(O)cc2)ccc1O :: 148
COc1cc(/C=C/C(=O)CC(=O)/C=C/c2ccc(O)c(OC)c2)ccc1O :: 1620

Let us examine a further case.
For `O=C(/C=C/c1ccc(O)cc1)CC(=O)/C=C/c1ccc(O)cc1` , what is its reported concentration at 10 min?
65.7

====

Readings of concentration at 45 min for the listed molecules
assay: in vivo; details: CD2F1, mouse, in vivo
State the answer as a number, implicitly in ng/mL.

Study these solved cases before continuing.
COc1cc(/C=C/C(O)=C/C(=O)/C=C/c2ccc(O)cc2)ccc1O :: 118
COc1cc(/C=C/C(=O)CC(=O)/C=C/c2ccc(O)c(OC)c2)ccc1O :: 661

Could you now consider this next molecule?
Entry `O=C(/C=C/c1ccc(O)cc1)CC(=O)/C=C/c1ccc(O)cc1` : reported concentration at 45 min = ?
66.9

====

test: in vivo; conditions: CD2F1, mouse, in vivo
Catalogue of compounds with associated concentration at 90 min

Previously resolved entries follow.
COc1cc(/C=C/C(=O)CC(=O)/C=C/c2ccc(O)c(OC)c2)ccc1O [curcumin] :: 135 ng/mL
COc1cc(/C=C/C(O)=C/C(=O)/C=C/c2ccc(O)cc2)ccc1O [DMO, desmethoxycurcumin] :: 29.1 ng/mL

State the recorded concentration at 90 min for this entry: O=C(/C=C/c1ccc(O)cc1)CC(=O)/C=C/c1ccc(O)cc1 [BDMO, bisdesmethoxycurcumin]
11.1 ng/mL

====

Assay: in vivo
Details: CD2F1, mouse, in vivo
Text: Extracts of bio-matrices were subjected to HPLC mass spectrometric analysis.
observationType: concentration at 30 min (µg/mL)
# output: bare number, implied unit µg/mL

Some solved cases for reference:
COc1cc(/C=C/C(=O)CC(=O)/C=C/c2ccc(O)c(OC)c2)ccc1O [curcumin] :: 2.45
O=C(/C=C/c1ccc(O)cc1)CC(=O)/C=C/c1ccc(O)cc1 [BDMO, bisdesmethoxycurcumin] :: 0.0514

Consider the record given below.
Given the compound COc1cc(/C=C/C(O)=C/C(=O)/C=C/c2ccc(O)cc2)ccc1O [DMO, desmethoxycurcumin] , what is its reported concentration at 30 min?
0.108

====

assay: In-vitro stability of curcumin in mouse plasma at 37° C; type: in vitro ADME
observationType: half-life
Don't forget the unit after the value.

Report half-life for `COc1cc(/C=C/C(=O)CC(=O)/C=C/c2ccc(O)c(OC)c2)ccc1O` please.
23.6 min

====

Each entry below carries its recorded concentration at 240 min.
assay: in vivo; settings: CD2F1, mouse, in vivo
Respond numerically; units are ng/mL and should not be typed.

I would be grateful if you could share the reported concentration at 240 min for `COc1cc(/C=C/C(=O)CC(=O)/C=C/c2ccc(O)c(OC)c2)ccc1O` .
169

Entry to check: `COc1cc(/C=C/C(O)=C/C(=O)/C=C/c2ccc(O)cc2)ccc1O`
40.4

And `O=C(/C=C/c1ccc(O)cc1)CC(=O)/C=C/c1ccc(O)cc1` ?
34.5
